Assay Info: Voxilaprevir Form VI single and multiple oral dose pharmacokinetics in healthy subjects
Format: in vivo, human
Run Parameters: human, plasma, oral; single dose 300 mg; mean
Experimental: Pub. No. 2015/0175625 A1. Initial studies were conducted using the crystalline Form VI of voxilaprevir. As described previously, Form VI of voxilaprevir is characterized by an X-ray powder diffractogram comprising the following peaks (±0.2°): at 14.6, 15.4, and 20.0°2θ, as determined on a diffractometer using Cu-Kα radiation. Following single and multiple oral doses of voxilaprevir, Form VI, maximum plasma concentrations occurred between 2.0 and 5.0 hours (median tmax). […]
Recorded Endpoint: AUC(0-inf) (ng·h/mL)

INSERT INTO measurements (compound, recorded_endpoint, readout_number) VALUES
  ('CC[C@@H]1[C@@H]2CN(C(=O)[C@H](C(C)(C)C)NC(=O)O[C@@H]3C[C@H]3CCCCC(F)(F)c3nc4ccc(OC)cc4nc3O2)[C@@H]1C(=O)N[C@]1(C(=O)NS(=O)(=O)C2(C)CC2)C[C@H]1C(F)F [voxilaprevir, Form VI]', 'AUC(0-inf)', 485);

###

Assay Info: Voxilaprevir Form VI single and multiple oral dose pharmacokinetics in healthy subjects
Type: in vivo, human
Run Parameters: human, plasma, oral, 100 mg, multiple dose 100 mg; mean
Recorded Endpoint: Cmax (ng/mL)

INSERT INTO measurements (compound, recorded_endpoint, readout_number) VALUES
  ('CC[C@@H]1[C@@H]2CN(C(=O)[C@H](C(C)(C)C)NC(=O)O[C@@H]3C[C@H]3CCCCC(F)(F)c3nc4ccc(OC)cc4nc3O2)[C@@H]1C(=O)N[C@]1(C(=O)NS(=O)(=O)C2(C)CC2)C[C@H]1C(F)F [voxilaprevir, Form VI]', 'Cmax', 46);

###

Assay Info: Voxilaprevir Form VI single and multiple oral dose pharmacokinetics in healthy subjects
Type: in vivo, human
Run Parameters: human, plasma, oral, 30 mg, multiple dose 30 mg; median
Description: Pub. No. 2015/0175625 A1. Initial studies were conducted using the crystalline Form VI of voxilaprevir. As described previously, Form VI of voxilaprevir is characterized by an X-ray powder diffractogram comprising the following peaks (±0.2°): at 14.6, 15.4, and 20.0°2θ, as determined on a diffractometer using Cu-Kα radiation. Following single and multiple oral doses of voxilaprevir, Form VI, maximum plasma concentrations occurred between 2.0 and 5.0 hours (median tmax). […]
Recorded Endpoint: half-life (h)

INSERT INTO results (molecule, recorded_endpoint, units, readout_number) VALUES
  ('CC[C@@H]1[C@@H]2CN(C(=O)[C@H](C(C)(C)C)NC(=O)O[C@@H]3C[C@H]3CCCCC(F)(F)c3nc4ccc(OC)cc4nc3O2)[C@@H]1C(=O)N[C@]1(C(=O)NS(=O)(=O)C2(C)CC2)C[C@H]1C(F)F [voxilaprevir, Form VI]', 'half-life', 'h', 41);

###

Assay Info: Voxilaprevir Form VI single and multiple oral dose pharmacokinetics in healthy subjects
Assay type: in vivo, human
Run Parameters: human, plasma, oral, 30 mg, single dose 30 mg; median
Recorded Endpoint: half-life (h)

INSERT INTO assay_data (molecule, readout_number) VALUES
  ('CC[C@@H]1[C@@H]2CN(C(=O)[C@H](C(C)(C)C)NC(=O)O[C@@H]3C[C@H]3CCCCC(F)(F)c3nc4ccc(OC)cc4nc3O2)[C@@H]1C(=O)N[C@]1(C(=O)NS(=O)(=O)C2(C)CC2)C[C@H]1C(F)F [voxilaprevir, Form VI]', 9.37);
